- MEASURED_ON: hGIPR (Homo sapiens, UniProt P48546)
- Sequence (P48546 22-466): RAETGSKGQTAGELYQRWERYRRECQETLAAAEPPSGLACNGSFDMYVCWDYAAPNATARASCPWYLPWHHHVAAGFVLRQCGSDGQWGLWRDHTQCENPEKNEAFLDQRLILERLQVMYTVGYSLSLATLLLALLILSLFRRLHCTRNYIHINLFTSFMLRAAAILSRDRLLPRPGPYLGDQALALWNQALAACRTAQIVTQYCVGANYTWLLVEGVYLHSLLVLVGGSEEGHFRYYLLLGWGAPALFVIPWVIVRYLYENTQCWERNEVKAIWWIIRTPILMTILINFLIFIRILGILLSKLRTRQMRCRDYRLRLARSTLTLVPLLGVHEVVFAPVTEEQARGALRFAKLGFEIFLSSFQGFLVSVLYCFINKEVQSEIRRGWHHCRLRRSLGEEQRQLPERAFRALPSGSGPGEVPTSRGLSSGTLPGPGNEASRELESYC
- TEST_DETAILS: Functional cAMP activity in the presence of 1% HSA
- Type: cell-based
- STUDY_CONDITIONS: read-out: cAMP Rel EC50, hGIPR
Starred links: 1 amine or outer side, 2 acyl side, 3 side chain; linkers in the order of their positions; H or OH if unused. Non-standard residues stand in square brackets, D forms with d. Groups on a side chain read outwards from the residue. *: point of attachment. C18 diacid = O=C(O)CCCCCCCCCCCCCCCCC(=O)*; αMePhe(2-F) = C[C@](N)(Cc1ccccc1F)C(=O)O; γGlu = O=C(O)[C@H](CCC(=O)[*:2])N[*:1]; αMe4Pal = C[C@](N)(Cc1ccncc1)C(=O)O; αMeY = C[C@](N)(Cc1ccc(O)cc1)C(=O)O; 4Pal = N[C@@H](Cc1ccncc1)C(=O)O; αMeL = CC(C)C[C@](C)(N)C(=O)O; Orn = NCCC[C@H](N)C(=O)O; AEEA = NCCOCCOCC(=O)O; Aib = CC(C)(N)C(=O)O
Catalogue of substances with associated EC50

SUBSTANCE	READING_UNIT	EC50
H-Y[Aib]QGTFTSD[4Pal]S[Orn][αMeL]LD[Orn]K([γGlu-γGlu-C18 diacid])AQ[αMe4Pal]AFIE[αMe4Pal]LIE[Aib]GPSSGEPPPSGS-NH2 [Example 991]	nM	14.8
H-Y[Aib]QGT[αMePhe(2-F)]TSD[4Pal]SILLDKK([γGlu-γGlu-C18 diacid])AQ[Aib]AFIEYLEEGGPSSGAPPPSGAGE-NH2 [Example 620]	nM	5.96
H-Y[Aib]QGT[αMePhe(2-F)]TSD[4Pal]SI[αMeL]LD[Orn]K([AEEA-γGlu-C18 diacid])AQ[αMe4Pal][Orn]FI[dE][αMeY]LIEGGPSSGAPPPESE-NH2 [Example 755]	nM	1.39

---

Catalogue of substances with associated EC50
- MEASURED_ON: hGIPR (Homo sapiens)
- TEST_DETAILS: Functional cAMP activity in the presence of 1% HSA
- Type: cell-based
- STUDY_CONDITIONS: read-out: cAMP Rel EC50, hGIPR
Starred links: 1 amine or outer side, 2 acyl side, 3 side chain; linkers in the order of their positions; H or OH if unused. Non-standard residues stand in square brackets, D forms with d. Groups on a side chain read outwards from the residue. *: point of attachment. C18 diacid = O=C(O)CCCCCCCCCCCCCCCCC(=O)*; αMePhe(2-F) = C[C@](N)(Cc1ccccc1F)C(=O)O; γGlu = O=C(O)[C@H](CCC(=O)[*:2])N[*:1]; αMe4Pal = C[C@](N)(Cc1ccncc1)C(=O)O; αMeY = C[C@](N)(Cc1ccc(O)cc1)C(=O)O; 4Pal = N[C@@H](Cc1ccncc1)C(=O)O; αMeL = CC(C)C[C@](C)(N)C(=O)O; αMeS = C[C@](N)(CO)C(=O)O; Orn = NCCC[C@H](N)C(=O)O; AEEA = NCCOCCOCC(=O)O; Aib = CC(C)(N)C(=O)O
VALUE_KIND: EC50 (nM)

SUBSTANCE	READING_UNIT	ASSAY_RESULT
H-Y[Aib]QGTFTSDFS[Orn][αMeL]LDKK([AEEA-γGlu-C18 diacid])AQ[Aib]AFIEYLLAGGPSSGAPPPSGE-NH2 [Example 86]	nM	19.6
H-Y[Aib]QGTFTSD[4Pal]S[Orn][αMeL]LD[Orn]K([γGlu-γGlu-C18 diacid])AQ[αMe4Pal][Orn]FIEYLLAGGPSSGAPPPSGSEE-NH2 [Example 1004]	nM	35.4
H-Y[Aib]QGT[αMePhe(2-F)]TSD[4Pal][αMeS]I[αMeL]LD[Orn]K([γGlu-γGlu-C18 diacid])AQ[αMe4Pal]EFI[dE][αMeY]LIEGGPPS[Aib][Orn]PPP[Orn]GE-NH2 [Example 1227]	nM	0.527

---

- MEASURED_ON: hGIPR (Homo sapiens, UniProt P48546)
- TEST_DETAILS: Functional cAMP activation in the presence of 0.1% casein (no HSA);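 also: intracellular cAMP rise after 30 min at 37 °C read by HTRF against a standard curve, scaled between buffer alone (0%) and top control ligand concentration (100%), four-parameter fit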
- Format: cell-based
- STUDY_CONDITIONS: read-out: Relative cAMP EC50, hGIPR
Starred links: 1 amine or outer side, 2 acyl side, 3 side chain; linkers in the order of their positions; H or OH if unused. Non-standard residues stand in square brackets, D forms with d. Groups on a side chain read outwards from the residue. No end group written: not given here. *: point of attachment. C18 diacid = O=C(O)CCCCCCCCCCCCCCCCC(=O)*; αMePhe(2-F) = C[C@](N)(Cc1ccccc1F)C(=O)O; γGlu = O=C(O)[C@H](CCC(=O)[*:2])N[*:1]; αMe4Pal = C[C@](N)(Cc1ccncc1)C(=O)O; αMeY = C[C@](N)(Cc1ccc(O)cc1)C(=O)O; 4Pal = N[C@@H](Cc1ccncc1)C(=O)O; αMeL = CC(C)C[C@](C)(N)C(=O)O; αMeS = C[C@](N)(CO)C(=O)O; Orn = NCCC[C@H](N)C(=O)O; AEEA = NCCOCCOCC(=O)O; Aib = CC(C)(N)C(=O)O
VALUE_KIND: EC50 (nM)

SUBSTANCE	MEASURED_ON	VALUE_KIND	ASSAY_RESULT
H-Y[Aib]QGT[αMePhe(2-F)]TSD[4Pal]SILLD[Orn]K([γGlu-γGlu-C18 diacid])AQ[Aib]AFIE[αMeY]LEEGGPSSGAPPPSGTGE-NH2 [Example 665]	hGIPR (Homo sapiens, UniProt P48546)	EC50	0.0223
H-Y[Aib]QGT[αMePhe(2-F)]TSD[4Pal][αMeS]I[αMeL]LD[Orn]K([AEEA-γGlu-C18 diacid])AQ[αMe4Pal]EFI[dE][αMeY]LVEGGPSSGAPPPSGS-NH2 [Example 694]	hGIPR (Homo sapiens, UniProt P48546)	EC50	0.00781
Y[Aib]QGT[αMePhe(2-F)]TSD[4Pal][αMeS]I[αMeL]LD[Orn]K([γGlu-γGlu-C18 diacid])AA[Aib]EFI[dE][αMeY]LIEGGPSSGEPPPSGGGE-NH2 [Example 748]	hGIPR (Homo sapiens, UniProt P48546)	EC50	0.0105
H-Y[Aib]QGT[αMePhe(2-F)]TSD[4Pal]SI[αMeL]LD[Orn]K([AEEA-γGlu-C18 diacid])AQ[αMe4Pal]EFI[dE][αMeY]LQEGGPSSGAPPPSGS-NH2 [Example 643]	hGIPR (Homo sapiens, UniProt P48546)	EC50	0.0223
Y[Aib]QGT[αMePhe(2-F)]TSD[4Pal][αMeS]I[αMeL]LD[Orn]K([γGlu-γGlu-C18 diacid])AQ[Aib][Orn]FI[dE][αMeY]LQEGGPSSGEPPPEGGEE-NH2 [Example 586]	hGIPR (Homo sapiens, UniProt P48546)	EC50	0.0461
H-Y[Aib]QGT[αMePhe(2-F)]TSD[4Pal][αMeS]I[αMeL]LD[Orn]K([γGlu-γGlu-C18 diacid])AQ[Aib][Orn]FI[dE][αMeY]LSEGGPSSGEPPPSGGE-NH2 [Example 559]	hGIPR (Homo sapiens, UniProt P48546)	EC50	0.119
H-Y[Aib]QGT[αMePhe(2-F)]TSD[4Pal][αMeS]I[αMeL]LD[Orn]K([γGlu-γGlu-C18 diacid])AQ[Aib][Orn]FI[dE][αMeY]LAEGGPSSGEPPPSGTGE-NH2 [Example 545]	hGIPR (Homo sapiens, UniProt P48546)	EC50	0.0432

---

Catalogue of substances with associated EC50
- MEASURED_ON: hGLP-1R (Homo sapiens, UniProt P43220)
- Sequence (P43220 24-463): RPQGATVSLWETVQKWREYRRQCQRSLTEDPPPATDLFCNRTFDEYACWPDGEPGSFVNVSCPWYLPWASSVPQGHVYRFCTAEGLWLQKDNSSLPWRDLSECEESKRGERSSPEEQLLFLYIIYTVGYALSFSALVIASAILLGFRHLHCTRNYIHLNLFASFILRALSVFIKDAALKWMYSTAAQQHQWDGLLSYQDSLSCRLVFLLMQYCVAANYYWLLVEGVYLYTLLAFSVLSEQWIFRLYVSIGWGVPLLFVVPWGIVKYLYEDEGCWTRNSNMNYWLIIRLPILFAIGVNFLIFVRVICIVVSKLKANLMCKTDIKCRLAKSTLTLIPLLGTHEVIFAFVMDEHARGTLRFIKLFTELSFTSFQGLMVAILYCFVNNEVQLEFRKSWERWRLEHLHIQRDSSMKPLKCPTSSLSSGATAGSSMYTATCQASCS
- TEST_DETAILS: Functional cAMP activation in the presence of 0.1% casein (no HSA);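 also: intracellular cAMP rise after 30 min at 37 °C read by HTRF, normalized between buffer only (0%) and maximal control ligand (100%), four-parameter variable-slope fit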
- Assay type: cell-based
- STUDY_CONDITIONS: read-out: Relative cAMP EC50, hGLP-1R
Starred links: 1 amine or outer side, 2 acyl side, 3 side chain; linkers in the order of their positions; H or OH if unused. Non-standard residues stand in square brackets, D forms with d. Groups on a side chain read outwards from the residue. No end group written: not given here. *: point of attachment. C18 diacid = O=C(O)CCCCCCCCCCCCCCCCC(=O)*; αMePhe(2-F) = C[C@](N)(Cc1ccccc1F)C(=O)O; γGlu = O=C(O)[C@H](CCC(=O)[*:2])N[*:1]; αMe4Pal = C[C@](N)(Cc1ccncc1)C(=O)O; αMeY = C[C@](N)(Cc1ccc(O)cc1)C(=O)O; 4Pal = N[C@@H](Cc1ccncc1)C(=O)O; αMeL = CC(C)C[C@](C)(N)C(=O)O; αMeS = C[C@](N)(CO)C(=O)O; Orn = NCCC[C@H](N)C(=O)O; AEEA = NCCOCCOCC(=O)O; Aib = CC(C)(N)C(=O)O

SUBSTANCE	READING_UNIT	EC50
Y[Aib]QGT[αMePhe(2-F)]TSD[4Pal][αMeS]I[αMeL]LD[Orn]K([γGlu-γGlu-C18 diacid])AQ[Aib][Orn]FI[dE][αMeY]LAEGGPSSGEPPPSGTEE-NH2 [Example 571]	nM	0.603
H-Y[Aib]QGT[αMePhe(2-F)]TSD[4Pal][αMeS]I[αMeL]LD[Orn]K([γGlu-γGlu-C18 diacid])AQ[αMe4Pal]EFI[dE][αMeY]LVEGGPSSGAPPPSGS-NH2 [Example 696]	nM	0.233
H-Y[Aib]QGT[αMePhe(2-F)]TSD[4Pal][αMeS]I[αMeL]LD[Orn]K([γGlu-γGlu-C18 diacid])AQ[Aib][Orn]FI[dE][αMeY]LTEGGPSSGEPPPSGTE-NH2 [Example 542]	nM	0.388
Y[Aib]QGT[αMePhe(2-F)]TSD[4Pal][αMeS]I[αMeL]LD[Orn]K([γGlu-γGlu-C18 diacid])AQ[Aib][Orn]FI[dE][αMeY]LQEGGPSSGEPPPSGTE-NH2 [Example 504]	nM	0.253
H-Y[Aib]QGT[αMePhe(2-F)]TSD[4Pal]SI[αMeL]LD[Orn]K([AEEA-γGlu-C18 diacid])AQ[αMe4Pal][Orn]FI[dE][αMeY]LIEGGPSSGEPPPEGTGE-NH2 [Example 680]	nM	0.246
H-Y[Aib]QGT[αMePhe(2-F)]TSD[4Pal][αMeS]I[αMeL]LD[Orn]K([γGlu-γGlu-C18 diacid])AQ[αMe4Pal]EFI[dE][αMeY]LVEGGPSSGEPPPSGGGE-NH2 [Example 739]	nM	0.348
H-Y[Aib]QGT[αMePhe(2-F)]TSD[4Pal]SILLD[Orn]K([γGlu-γGlu-C18 diacid])AQ[Aib]AFIEYLQEGGPSSGAPPPSGTEE-NH2 [Example 581]	nM	0.406
H-Y[Aib]QGT[αMePhe(2-F)]TSD[4Pal]SILLDKK([γGlu-γGlu-C18 diacid])AQ[Aib]AFIEYLEEGGPSSGAPPPSGEEE-NH2 [Example 611]	nM	1.63
H-Y[Aib]QGT[αMePhe(2-F)]TSD[4Pal][αMeS]I[αMeL]LD[Orn]K([γGlu-γGlu-C18 diacid])AQ[Aib]NFI[dE][αMeY]LIEGGPSSGEPEPEEG-NH2 [Example 474]	nM	0.236
H-Y[Aib]QGT[αMePhe(2-F)]TSD[4Pal][αMeS]I[αMeL]LD[Orn]K([γGlu-γGlu-C18 diacid])AQ[Aib][Orn]FI[dE][αMeY]LSEGGPSSGEPPPSGAEE-NH2 [Example 567]	nM	1.07
H-Y[Aib]QGT[αMePhe(2-F)]TSD[4Pal]SILLDKK([γGlu-γGlu-C18 diacid])AQ[Aib]AFIEYLEEGGPSSGAPPPSGTE-NH2 [Example 509]	nM	0.65
H-Y[Aib]QGT[αMePhe(2-F)]TSD[4Pal]SI[αMeL]LD[Orn]K([AEEA-γGlu-C18 diacid])AQ[αMe4Pal]EFI[dE][αMeY]LQEGGPSSGAPPPSGS-NH2 [Example 643]	nM	0.741
H-Y[Aib]QGT[αMePhe(2-F)]TSD[4Pal][αMeS]I[αMeL]LD[Orn]K([γGlu-γGlu-C18 diacid])AQ[Aib][Orn]FI[dE][αMeY]LSEGGPSSGEPPPSGTEEE-NH2 [Example 562]	nM	1.67
